- Method: Intrinsic clearance in mouse liver microsomes by HPLC-MS/MS analysis
Value type: CLint scaled (L/h/kg)

• C[C@H](Sc1nncn1C)c1cccc(NC(=O)c2ccnc(C3CC3)n2)c1 = 30

---

Listed below: IC50 values for each entry.
- Tgt: E3 ubiquitin-protein ligase CBL-B (Homo sapiens, UniProt Q13191)
- Sequence (Q13191 whole entry): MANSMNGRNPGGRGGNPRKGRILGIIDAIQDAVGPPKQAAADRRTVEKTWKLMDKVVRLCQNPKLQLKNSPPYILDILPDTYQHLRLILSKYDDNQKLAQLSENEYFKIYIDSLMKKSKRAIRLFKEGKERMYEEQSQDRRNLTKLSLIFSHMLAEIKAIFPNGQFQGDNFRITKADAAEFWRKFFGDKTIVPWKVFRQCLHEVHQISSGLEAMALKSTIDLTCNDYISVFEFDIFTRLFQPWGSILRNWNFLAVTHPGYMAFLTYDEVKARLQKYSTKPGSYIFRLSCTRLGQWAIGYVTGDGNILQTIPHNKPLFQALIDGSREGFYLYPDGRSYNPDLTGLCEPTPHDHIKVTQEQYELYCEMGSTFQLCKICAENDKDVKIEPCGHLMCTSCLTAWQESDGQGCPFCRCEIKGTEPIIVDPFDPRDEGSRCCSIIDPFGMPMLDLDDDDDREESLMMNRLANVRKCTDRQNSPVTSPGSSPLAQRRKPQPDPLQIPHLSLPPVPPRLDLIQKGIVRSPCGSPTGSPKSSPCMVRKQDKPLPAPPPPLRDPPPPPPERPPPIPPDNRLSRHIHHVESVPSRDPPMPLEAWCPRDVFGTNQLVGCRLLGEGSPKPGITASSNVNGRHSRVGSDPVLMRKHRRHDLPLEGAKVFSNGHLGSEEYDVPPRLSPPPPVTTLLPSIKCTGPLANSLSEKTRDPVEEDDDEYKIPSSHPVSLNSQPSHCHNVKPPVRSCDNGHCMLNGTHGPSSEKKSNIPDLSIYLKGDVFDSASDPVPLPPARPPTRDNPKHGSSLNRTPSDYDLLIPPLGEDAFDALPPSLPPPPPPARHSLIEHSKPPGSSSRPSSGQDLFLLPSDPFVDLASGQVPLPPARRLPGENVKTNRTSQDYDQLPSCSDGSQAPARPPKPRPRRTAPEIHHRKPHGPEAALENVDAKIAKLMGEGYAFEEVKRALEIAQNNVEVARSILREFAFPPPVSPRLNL
- Method: Inhibition of Cbl-b (unknown origin)
Value type: IC50

- C[C@H](Cc1nncn1C)c1cccc(-c2n[nH]c3c(CN4CC[C@H](F)C4)cc(C(F)(F)F)nc23)c1: < 100 nM
- Cn1cnnc1[C@]1(c2cccc(-n3cc4c(C(F)(F)F)cc(CN5CCC6(CC6)C5)cn4c3=O)c2)C[C@H](C)C1: < 100 nM
- Cn1cnnc1C(F)(F)[C@](C)(F)c1cccc(NC(=O)N2CC3(CNC3)Oc3cccnc32)c1: < 100 nM
- C[C@H]1CCCN(Cc2cc(C(F)(F)F)c3[nH]c(-c4cccc([C@]5(c6nncn6C)C[C@@H](C)C5)c4)nc3c2)C1: < 200 nM
